# Test system: L1210 leukemia ip in BDF1 mice, survival T/C
# protocol: NCI In Vivo Anticancer Drug Screen. Data for tumor model L1210 Leukemia (intraperitoneal) in B6D2F1 (BDF1) mice
# studyConditions: endpoint: mean survival time; dose: 100.0 mg/kg/injection; schedule: Q04DX003 (ip); vehicle: saline with Tween-80
Inconclusive results and toxic doses are left out. No stated cut-off is given here; in the data, active means T/C of 150% or more; inactive means T/C below 125%.
Labels: YES for active, NO for inactive

>>> labelvalue("Brc1ccccc1-c1ccccc1-c1ccccc1")
"NO"
>>> labelvalue("COc1cc(Nc2nc(N)ncc2N)cc(OC)c1OC")
"NO"
>>> labelvalue("O/N=C(\\CC(O)(C(F)(F)F)C(F)(F)F)c1cccs1")
"NO"
>>> labelvalue("Cc1cc(OS(C)(=O)=O)ccc1OS(C)(=O)=O")
"NO"
>>> labelvalue("Nc1c2ccccc2nc2ccccc12")
"NO"
>>> labelvalue("CC(C)(C)C(=O)CC(=O)C(C)(C)C.CC(C)(C)C(=O)CC(=O)C(C)(C)C.CC(C)(C)C(=O)CC(=O)C(C)(C)C.[Gd]")
"NO"
>>> labelvalue("Oc1cccc2c1ccc1ccc3ccccc3c12")
"NO"
>>> labelvalue("COC(=O)c1ccc(OC)c2nc3c(C=O)c(OC)cc(OC)c3nc12")
"NO"
>>> labelvalue("N#CC1(C#N)C2C=CC(C3CCC=C32)C1(C#N)C#N (stereo not given)")
"NO"
>>> labelvalue("CC(C)CCOC(=O)c1ccccc1OC(=O)Nc1ccc(Cl)cc1[N+](=O)[O-]")
"NO"
>>> labelvalue("COc1cc(Cl)ccc1C")
"NO"
>>> labelvalue("O=C(O)Cn1c(=O)n(CC(=O)O)c2ccccc21")
"NO"
>>> labelvalue("CC(C)(C)C(=O)CC(O)(C(F)(F)Cl)C(F)(F)Cl")
"NO"
>>> labelvalue("Cc1cc(C)c(O)c(CN(C)C)c1")
"NO"
>>> labelvalue("CCCOC(=O)c1cncc(C(=O)OCCC)c1")
"NO"
>>> labelvalue("CC(=O)c1ccc(SC(=O)N(C)C)cc1")
"NO"
>>> labelvalue("Cc1cc(Cl)ccc1NC(=O)c1ccc([N+](=O)[O-])cc1")
"NO"
>>> labelvalue("O=c1[nH]cc(Sc2ccccc2)c(=O)[nH]1")
"NO"
>>> labelvalue("Cc1c2cnccc2c(C)c2c1c1ccccc1n2CCOC(=O)c1ccccc1")
"NO"
>>> labelvalue("O=c1c2ccccc2oc2ccccc12")
"NO"
>>> labelvalue("COc1ccc(Br)cc1/C=N/N=C/c1cc(Br)ccc1OC")
"NO"
>>> labelvalue("O=C(Nc1ccccc1[N+](=O)[O-])Oc1ccc(-c2ccccc2)cc1")
"NO"
>>> labelvalue("CCOC(=O)c1ccc(NC(=S)NC(=O)C(C)Oc2ccccc2)cc1 (stereo not given)")
"NO"
>>> labelvalue("CCCCC(CC)C1N(C)CCCN1C (stereo not given)")
"NO"
>>> labelvalue("CC1=CCCCC1Oc1ccccc1 (stereo not given)")
"NO"
>>> labelvalue("CCN(CC)CCOc1ccc(-c2ccccc2)cc1")
"YES"
>>> labelvalue("CNc1ccc(C(=O)C2CC2)cc1")
"NO"
>>> labelvalue("O=c1[nH]c2nc(SCc3ccccc3)n(Cc3ccccc3)c2c(=O)n1OS(=O)(=O)c1ccccc1")
"NO"
>>> labelvalue("O=[N+]([O-])c1ccc(N/N=C(\\Cc2ccccc2)c2ccccc2)c([N+](=O)[O-])c1")
"NO"
>>> labelvalue("Cc1ccc2c(c1)C=CC(C#N)N2C(=O)OCc1ccccc1 (stereo not given)")
"NO"
>>> labelvalue("C=C1C(O)CC2CC1C2(C)C (stereo not given)")
"NO"
>>> labelvalue("Fc1cccc(CSC(=S)Nc2ccc(Cl)c(Cl)c2)c1")
"NO"
>>> labelvalue("O=C(NC(=S)Nc1cc(Cl)ccc1Cl)c1ccc(Cl)cc1Cl")
"NO"
>>> labelvalue("CC(=O)OCC(C)([N+](=O)[O-])[N+](=O)[O-]")
"NO"
>>> labelvalue("CC(=O)NC(C(=O)O)(C(=O)O)C(C)c1c[nH]c2ccccc12 (stereo not given)")
"NO"
>>> labelvalue("Cc1nc2ccccc2cc1CO")
"NO"
>>> labelvalue("C(=NCC(CCN1CCOCC1)(CCN1CCOCC1)c1cccc2ccccc12)C(CCN1CCOCC1)(CCN1CCOCC1)c1cccc2ccccc12")
"NO"
>>> labelvalue("C1=CC2C3C=CC(CC3)C2CC1 (stereo not given)")
"NO"
>>> labelvalue("O=C(Nc1ccc([N+](=O)[O-])cc1)Nc1ccc([N+](=O)[O-])cc1")
"NO"
>>> labelvalue("C=C(Br)CNC(=O)OC")
"NO"
>>> labelvalue("BrC1(Br)C2CC3C(CC21)C1CC2C(CC31)C2(Br)Br (stereo not given)")
"NO"
>>> labelvalue("NC(=O)c1nccnc1C(N)=O")
"NO"
>>> labelvalue("O=C(CC(O)(C(F)(F)Cl)C(F)(F)Cl)c1cccs1")
"NO"
>>> labelvalue("Cc1ccc(S(=O)(=O)N/N=C/C(C)(C)C(C)C)cc1")
"NO"
>>> labelvalue("Nc1nc(-c2ccccc2)nc2nonc12")
"NO"
>>> labelvalue("Cc1c(Cl)cccc1NC(=O)OCCCc1ccccc1")
"NO"
>>> labelvalue("O=c1c2ccccc2sc2c1ccc1c2ccc2c(=O)c3ccccc3sc21")
"NO"
>>> labelvalue("Nc1nc(SCCO)nc2nc[nH]c12")
"NO"
>>> labelvalue("CCC(C#N)C1=CCCCCC1 (stereo not given)")
"NO"
>>> labelvalue("CCOC(=O)CN(C(=O)OCc1ccccc1)N(C)C(=O)OCc1ccccc1")
"NO"

Origin of the recorded values: PubChem BioAssay AID248
